List of Migration rate (%) (mean ± SD, P) values.
# Test system: human lung squamous carcinoma cells (NCI-H226)
# Assay remarks: scratch assay, migration of NCI-H226 cells
# Format: cell-based
# Applied conditions: NCI-H226, 10 μM, 48 hours; control group 65.31 ± 3.19
Ends that are not written are not given here. PEG = not defined here

Return reported Migration rate (%) (mean ± SD, P) for target or system human lung squamous carcinoma cells (NCI-H226), item N45: SEQ ID NO: 1 with V11R, deletion of positions 1-5 and 15-18, PEG modification at the carboxyl terminal (LAKENRTQD-{PEG}; reading uncertain) .
23.76 ± 5.38,*** %

Report measured Migration rate (%) (mean ± SD, P) on human lung squamous carcinoma cells (NCI-H226); entry: N25: SEQ ID NO: 1 with substitution N18R and addition of two amino acids at the carboxyl terminal (YRVRFLAKENVTQDAEDRCT)
15.03 ± 8.16,*** %

GET Migration rate (%) (mean ± SD, P) where system = human lung squamous carcinoma cells (NCI-H226) and item = N18: SEQ ID NO: 1 with addition of one amino acid at the amino terminal and one at the carboxyl terminal (FYRVRFLAKENVTQDAEDNC)
48.17 ± 3.85,** %

Send back human lung squamous carcinoma cells (NCI-H226) Migration rate (%) (mean ± SD, P) of N52: SEQ ID NO: 1 with N18R, addition of two amino acids and PEG modification at the carboxyl terminal (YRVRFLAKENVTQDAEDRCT-{PEG}; reading uncertain) only.
27.19 ± 4.67,*** %

Return reported Migration rate (%) (mean ± SD, P) for target or system human lung squamous carcinoma cells (NCI-H226), item N13: SEQ ID NO: 1 with deletion of positions 15-18 and positions 1-5 (LAKENVTQD) .
11.29 ± 8.97,*** %

Retrieve Migration rate (%) (mean ± SD, P) on human lung squamous carcinoma cells (NCI-H226); query N3: SEQ ID NO: 1 with deletion of position 18 and PEG modification at the amino terminal ({PEG}-YRVRFLAKENVTQDAED; reading uncertain)
16.38 ± 6.85,*** %

Answer briefly: Migration rate (%) (mean ± SD, P) recorded on human lung squamous carcinoma cells (NCI-H226) for N40: SEQ ID NO: 1 with deletion of positions 1-5 and 15-18, PEG at the amino terminal, two amino acids added at the carboxyl terminal ({PEG}-LAKENVTQDRC; reading uncertain)
17.00 ± 6.49,*** %

* * *

Listed below: Number of cells (mean ± SD, P), migrated cells values for each entry.
# Tested on: human liver adenocarcinoma cells (SK-HEP-1)
# Assay remarks: transwell migration assay, SK-HEP-1 cells
# Assay type: cell-based
# Applied conditions: SK-HEP-1 transwell migration, 10 μM, 24 hours; control group 1 782 ± 108, control group 2 768 ± 86
Ends that are not written are not given here. PEG = not defined here

Take a look at these entries with their results.
substance="N3: SEQ ID NO: 1 with deletion of position 18 and PEG modification at the amino terminal ({PEG}-YRVRFLAKENVTQDAED; reading uncertain)" result="112 ± 10,****"
substance="N19: SEQ ID NO: 1 with deletion of positions 1-5 and 15-18 and addition of two amino acids at the carboxyl terminal (LAKENVTQDRC)" result="82 ± 6,****"
substance="N1: polypeptide with the amino acid sequence set forth in SEQ ID NO: 1 (YRVRFLAKENVTQDAEDN)" result="87 ± 10,****"
substance="N14: SEQ ID NO: 1 with deletion of positions 1-5 and addition of one amino acid at the carboxyl terminal (LAKENVTQDAEDNC)" result="61 ± 14,****"
substance="N27: SEQ ID NO: 1 with addition of one amino acid at the carboxyl terminal and PEG modification at the carboxyl terminal (YRVRFLAKENVTQDAEDNC-{PEG}; reading uncertain)" result="469 ± 56,**"
substance="N21: SEQ ID NO: 1 with deletion of positions 1-5 and 15-18 and addition of one amino acid at the amino terminal (SLAKENVTQD)" result="34 ± 7,****"

Give the value of Number of cells (mean ± SD, P), migrated cells reported for the following: N6: SEQ ID NO: 1 with deletion of four amino acids at the carboxyl terminal (positions 15-18) (YRVRFLAKENVTQD)
157 ± 13,****

Quote Number of cells (mean ± SD, P), migrated cells reported for N23: SEQ ID NO: 1 with substitution A7R, deletion of position 11 and of positions 15-18 (YRVRFLRKENTQDAED) please.
276 ± 24,****

Fill in Number of cells (mean ± SD, P), migrated cells for record N9: SEQ ID NO: 1 with deletion of positions 15-18 and PEG modification at the amino terminal ({PEG}-YRVRFLAKENVTQD; reading uncertain)
174 ± 15,****

// Input: N49: SEQ ID NO: 1 with A7R, deletion of positions 1-2 and position 18, PEG modification at the carboxyl terminal (VRFLRKENVTQDAED-{PEG}; reading uncertain) . Output its Number of cells (mean ± SD, P), migrated cells only.
137 ± 11,****

* * *

# Test system: vimentin
# Assay remarks: vimentin expression in SK-HEP-1 cells (ELISA)
# Type: cell-based, human
# Applied conditions: SK-HEP-1, 10 μM, 24 hours, control group 1.2 ± 0.01
Ends that are not written are not given here. PEG = not defined here
Recorded endpoint: Relative protein level (mean ± SD, P), vimentin

Worked set:
substance="N9: SEQ ID NO: 1 with deletion of positions 15-18 and PEG modification at the amino terminal ({PEG}-YRVRFLAKENVTQD; reading uncertain)" result="1.03 ± 0.05, **"
substance="N10: SEQ ID NO: 1 with deletion of positions 15-18 and 1-3 and PEG modification at the carboxyl terminal (RFLAKENVTQD-{PEG}; reading uncertain)" result="0.88 ± 0.06, ***"

# ---- query substance ----
Give Relative protein level (mean ± SD, P), vimentin for N11: SEQ ID NO: 1 with deletion of positions 15-18 and 1-3 and PEG modification at the amino terminal ({PEG}-RFLAKENVTQD; reading uncertain)
0.94 ± 0.05, ***

* * *

Entries and their measured Migration rate (%) (mean ± SD, P) follow.
# Test system: human prostate cancer cells (22RV1)
# Assay remarks: scratch assay, migration of 22RV1 cells
# Assay type: cell-based
# Applied conditions: 22RV1, 10 μM, 48 hours; control group 25.41 ± 5.01
# Protocol: In the scratch assay, the cell migration rate was negatively correlated with the inhibitory effect of the drug component on tumor cell migration ability. […] ImageJ software was used to count the migration distance of the cells, and the cell migration rate was calculated as: cell migration rate (%)=(width of original scratch−width of current scratch)/width of original scratch×100. […]
Ends that are not written are not given here. PEG = not defined here

substance="N17: SEQ ID NO: 1 with addition of two amino acids to the carboxyl terminal (YRVRFLAKENVTQDAEDNCT)" result="4.61 ± 1.64,** %"

Please give the documented Migration rate (%) (mean ± SD, P) of N28: SEQ ID NO: 1 with deletion of positions 1-2 and 18 and PEG modification at the amino terminal ({PEG}-VRFLAKENVTQDAED; reading uncertain)
15.63 ± 2.59,* %

* * *

# Tested on: human pancreatic cancer cells (PANC-1)
# Assay remarks: transwell invasion assay, PANC-1 cells
# Format: cell-based
# Applied conditions: PANC-1 transwell invasion, 10 μM, 24 hours; control group 727 ± 68
Ends that are not written are not given here. PEG = not defined here
Recorded endpoint: Number of cells (mean ± SD, P), invaded cells

substance="N39: SEQ ID NO: 1 with addition of two amino acids and PEG modification at the carboxyl terminal (YRVRFLAKENVTQDAEDNTC-{PEG}; reading uncertain)" measured_target="human pancreatic cancer cells (PANC-1)" result="278 ± 16,****"
substance="N26: SEQ ID NO: 1 with substitution A15R, addition of one amino acid at the amino terminal and one at the carboxyl terminal (FYRVRFLAKENVTQDREDNC)" measured_target="human pancreatic cancer cells (PANC-1)" result="231 ± 18,****"
substance="N12: SEQ ID NO: 1 with deletion of position 18 and positions 1-2 (VRFLAKENVTQDAED)" measured_target="human pancreatic cancer cells (PANC-1)" result="180 ± 17,****"

Answer with Number of cells (mean ± SD, P), invaded cells of N18: SEQ ID NO: 1 with addition of one amino acid at the amino terminal and one at the carboxyl terminal (FYRVRFLAKENVTQDAEDNC) measured for human pancreatic cancer cells (PANC-1).
118 ± 14,****

Consider the substance N15: SEQ ID NO: 1 with substitution N18R and addition of one amino acid to the carboxyl terminal (YRVRFLAKENVTQDAEDRC) tested on human pancreatic cancer cells (PANC-1); state its Number of cells (mean ± SD, P), invaded cells.
104 ± 9,****

Give Number of cells (mean ± SD, P), invaded cells; test system human pancreatic cancer cells (PANC-1); substance N16: SEQ ID NO: 1 with substitution A7R and addition of one amino acid at the carboxyl terminus (YRVRFLRKENVTQDAEDNC)
128 ± 25,****

Look up and report Number of cells (mean ± SD, P), invaded cells, with human pancreatic cancer cells (PANC-1) as system, for N30: SEQ ID NO: 1 with deletion of positions 1-5 and 15-18 and PEG modification at the carboxyl terminal (LAKENVTQD-{PEG}; reading uncertain)
237 ± 15,****

Recall the reported Number of cells (mean ± SD, P), invaded cells of N13: SEQ ID NO: 1 with deletion of positions 15-18 and positions 1-5 (LAKENVTQD) when tested on human pancreatic cancer cells (PANC-1).
161 ± 19,****
